# RA at 100 µM against Mtb listing for each entry below
molecular target: Mtb proteasome (Mycobacterium tuberculosis); construct: made in house; experiment: biochemical; format: biochemical
Sequence (P9WHT9 whole entry, looked up): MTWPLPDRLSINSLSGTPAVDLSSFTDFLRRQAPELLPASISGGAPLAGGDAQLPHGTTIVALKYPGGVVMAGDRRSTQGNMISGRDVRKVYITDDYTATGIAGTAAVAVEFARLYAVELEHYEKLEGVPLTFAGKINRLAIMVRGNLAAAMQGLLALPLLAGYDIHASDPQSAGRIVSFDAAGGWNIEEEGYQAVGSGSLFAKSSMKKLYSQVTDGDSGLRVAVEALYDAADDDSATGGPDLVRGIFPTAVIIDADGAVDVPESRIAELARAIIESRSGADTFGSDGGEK
measuredEndpoint: RA at 100 µM against Mtb (%)

- Cc1c(CC(=O)NCC#N)c(=O)oc2cc3occ(-c4ccco4)c3cc12: 91
- Cc1c(CCC(=O)ON2C(=O)CCC2=O)c(=O)oc2cc3occ(C(C)(C)C)c3cc12: 70
- Cc1c(CCC(=O)N(C)CC#N)c(=O)oc2cc3occ(-c4ccccc4)c3cc12: 100
- Cc1c(CCC(=O)ON2C(=O)CCC2=O)c(=O)oc2cc3occ(-c4ccc(Br)cc4)c3cc12: 96
- O=C(O)Cc1cc2cc3c(-c4ccccc4)coc3cc2oc1=O: 54
- COc1cccc(-c2coc3cc4oc(=O)c(CCC(=O)ON5C(=O)CCC5=O)c(C)c4cc23)c1: 72
- Cc1c(CNC(=O)CC#N)c(=O)oc2cc3occ(-c4ccccc4)c3cc12: 100
- Cc1coc2cc3oc(=O)c(CCC(=O)NCC#N)c(C)c3cc12: 95
